These data points were gathered from ChEMBL document CHEMBL4028802.

- Organism: Homo sapiens
- protocol-description: Liver toxicity in human assessed as induction of drug-induced liver injury by measuring severity class index
reported-endpoint: DILI_severity_class
Number only, no unit.

[ask] State its DILI_severity_class for this compound: CC(=O)OCC[N+](C)(C)C.[Cl-] [ACETYLCHOLINE CHLORIDE]
[reply] 0

[ask] State its DILI_severity_class for this compound: Cc1cn([C@@H]2C[C@@H](O)[C@H](CO)O2)c(=O)[nH]c1=O [TELBIVUDINE]
[reply] 2

[ask] State its DILI_severity_class for this compound: CC(=O)O.CC(C)[C@@H]1NC(=O)[C@H](CCCCN)NC(=O)[C@@H](Cc2c[nH]c3ccccc23)NC(=O)[C@H](Cc2ccc(O)cc2)NC(=O)[C@@H](NC(=O)[C@H](N)Cc2ccc3ccccc3c2)CSSC[C@@H](C(=O)N[C@H](C(N)=O)[C@@H](C)O)NC1=O [LANREOTIDE ACETATE]
[reply] 2

----------
- Organism: Homo sapiens
- protocol-description: Liver toxicity in human assessed as induction of drug-induced liver injury by measuring verified drug-induced liver injury concern status
reported-endpoint: DILI_Concern

1) CCCCCNC(=N)N/N=C/c1c[nH]c2ccc(OC)cc12 [TEGASEROD]; Ambiguous-Dili-Concern
2) COC1=CC(=O)C[C@@H](C)[C@]12Oc1c(Cl)c(OC)cc(OC)c1C2=O [GRISEOFULVIN]; Most-Dili-Concern
3) C#Cc1cccc(Nc2ncnc3cc(OCCOC)c(OCCOC)cc23)c1 [ERLOTINIB]; Most-Dili-Concern
4) CNC(=O)Oc1ccc2c(c1)[C@]1(C)CCN(C)[C@@H]1N2C [PHYSOSTIGMINE]; No-Dili-Concern
5) CC(C)Cc1ccc(CC(=O)O)cc1 [IBUFENAC]; Most-Dili-Concern
6) Cn1c(=O)c2c(ncn2CC(O)CO)n(C)c1=O (centres undefined) [DYPHYLLINE]; No-Dili-Concern

[ask] State its DILI_Concern for this molecule: Nc1nc2ncc(CNc3ccc(C(=O)N[C@@H](CCC(=O)O)C(=O)O)cc3)nc2c(=O)[nH]1 [FOLIC ACID]
[reply] No-Dili-Concern

[ask] State its DILI_Concern for this molecule: C[C@@H](O)[C@H]1C(=O)N2C(C(=O)O)=C(S[C@@H]3CN[C@H](CNS(N)(=O)=O)C3)[C@H](C)[C@H]12 [DORIPENEM]
[reply] Ambiguous-Dili-Concern

----------
- Species: Homo sapiens
- protocol-description: Liver toxicity in human assessed as induction of drug-induced liver injury by measuring verified drug-induced liver injury concern status
Non-standard residues stand in square brackets, D forms with d. Residues, ends and D or L forms follow the SMILES beside them. *: point of attachment. dPhe(4-NHCONH2) = NC(=O)Nc1ccc(C[C@@H](N)C(=O)O)cc1; Dihydroorotyl(S) = O=C1C[C@@H](C(=O)*)NC(=O)N1; dPhe(4-Cl) = N[C@H](Cc1ccc(Cl)cc1)C(=O)O; Phe(4-NH2) = Nc1ccc(C[C@H](N)C(=O)O)cc1; d2Nal = N[C@H](Cc1ccc2ccccc2c1)C(=O)O; Lys(iPr) = CC(C)NCCCC[C@H](N)C(=O)O; d3Pal = N[C@H](Cc1cccnc1)C(=O)O
reported-endpoint: DILI_Concern

Recorded results for 10 compounds are shown here.
1) CC(=O)N[C@H](Cc1ccc2ccccc2c1)C(=O)N[C@H](Cc1ccc(Cl)cc1)C(=O)N[C@H](Cc1cccnc1)C(=O)N[C@@H](CO)C(=O)N[C@@H](Cc1ccc(NC(=O)[C@@H]2CC(=O)NC(=O)N2)cc1)C(=O)N[C@H](Cc1ccc(NC(N)=O)cc1)C(=O)N[C@@H](CC(C)C)C(=O)N[C@@H](CCCCNC(C)C)C(=O)N1CCC[C@H]1C(=O)N[C@H](C)C(N)=O [DEGARELIX] (Ac-[d2Nal][dPhe(4-Cl)][d3Pal]S[Phe(4-NH2)](Dihydroorotyl(S))[dPhe(4-NHCONH2)]L[Lys(iPr)]P[dA]-NH2); Ambiguous-Dili-Concern
2) NC(=O)C[S@@+]([O-])C(c1ccccc1)c1ccccc1; Ambiguous-Dili-Concern
3) Nc1nc2c(c(=O)[nH]1)N(C=O)C(CNc1ccc(C(=O)N[C@@H](CCC(=O)O)C(=O)O)cc1)CN2 (stereo partly drawn); No-Dili-Concern
4) C=C1[C@H](CO)[C@@H](O)C[C@@H]1n1cnc2c(=O)[nH]c(N)nc21.O; Ambiguous-Dili-Concern
5) CCCSc1ccc2nc(NC(=O)OC)[nH]c2c1; Most-Dili-Concern
6) CCC1(C)CC(=O)NC1=O (stereo not drawn) [ETHOSUXIMIDE]; Ambiguous-Dili-Concern
7) COc1cccc2c1C(=O)c1c(O)c3c(c(O)c1C2=O)C[C@@](O)(C(=O)CO)C[C@@H]3O[C@H]1C[C@H](N)[C@@H](O)[C@H](C)O1 [EPIRUBICIN]; Ambiguous-Dili-Concern
8) CN1[C@@H]2CC[C@H]1C[C@@H](OC(=O)C(CO)c1ccccc1)C2 (stereo partly drawn); No-Dili-Concern
9) CCCC(C)C1(CC)C(=O)NC(=O)NC1=O (stereo not drawn); Ambiguous-Dili-Concern
10) N[C@@H](Cc1cc(I)c(Oc2ccc(O)c(I)c2)c(I)c1)C(=O)O; No-Dili-Concern

[ask] State its DILI_Concern for this compound: CCc1oc2ccccc2c1C(=O)c1cc(Br)c(O)c(Br)c1
[reply] Most-Dili-Concern

[ask] State its DILI_Concern for this compound: CC1=C(CCC(=O)O)c2cc3[nH]c(cc4[nH]c(cc5nc(cc1n2)C(C)=C5C(C)OC(C)c1c(C)c2cc5nc(cc6nc(cc7[nH]c(cc1[nH]2)c(C)c7CCC(=O)O)C(CCC(=O)O)=C6C)C(C(C)O)=C5C)c(C)c4C(C)O)c(C)c3CCC(=O)O (stereo not drawn)
[reply] No-Dili-Concern
